Cited source for all entries: the RNAGym collection of RNA variant scans (doi:10.1021/acssynbio.7b00057)

B1: Pistol ribozyme (parent)
chain: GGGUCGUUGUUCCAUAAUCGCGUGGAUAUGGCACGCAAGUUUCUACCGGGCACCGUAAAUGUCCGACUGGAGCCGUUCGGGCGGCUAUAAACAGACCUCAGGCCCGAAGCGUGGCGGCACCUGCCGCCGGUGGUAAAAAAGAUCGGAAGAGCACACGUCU

Variants of: B1
Experiment: aptazyme ON/OFF ratio, guanine; higher = stronger switching; co-transcriptional cleavage with and without guanine
MEASURE NAME: aptazyme ON/OFF ratio

> print(dat)
                      variant.label  obs.value
 1                 U7C U8C G9A C12G       1.41
 2      U7A G9U U10C U11G C12G C13G       1.16
 3       U7A U8G G9U U11C C12U C13U       1.07
 4      U7A U8C U10C U11A C12A C13U       1.21
 5       U7G U8C G9U U10G U11G C12U       1.35
 6           U7A U8A U10A U11C C13G       1.06
 7      U7G U8G U10G U11C C12G C13G       1.25
 8      U8C G9U U10C U11G C12U C13G       1.12
 9                U7A U8A U10G C12U       1.35
10           U7A G9A U11A C12A C13A       1.22
11                     U8G G9C C12G       1.05
12            U7G U8A G9A U11A C12G       1.24
13          U8G U10G U11G C12A C13G       1.05
14  U7C U8C G9U U10C U11G C12U C13A       1.09
15            U7G U8G G9A U11A C13U       1.11
16       U7A U8C G9U U10G C12A C13G       1.18
17      U7G U8C U10G U11A C12A C13A       1.11
18          U8A U10A U11C C12U C13U       1.06
19            U7A U8C G9C U11A C12G       1.09
20            U7A U8G G9U U11G C12A       1.38
21            U7G U8C G9U C12U C13A       1.18
22               G9C U10G U11C C13U       1.06
23            U7C U8A G9U U10G C13U       1.31
24  U7G U8C G9C U10C U11C C12G C13A       1.09
25                    G9A C12U C13G       1.62
26           U7C G9C U11A C12G C13U       1.14
27               G9A U10G U11C C13G       1.12
28               G9U U11G C12U C13U       1.29
29            U7A U8G G9A U10A U11G        1.8
30                     U7G U8A C13U      0.972
31           U8G G9U U10G U11G C12G       1.13
32      U7A U8A U10A U11A C12A C13A       1.12
33      U7C U8A U10G U11A C12U C13G       1.24
34       U7C U8A G9C U10C U11A C13A       1.09
35  U7G U8C G9C U10A U11G C12A C13A        1.1
36       U7C U8G G9C U10A C12A C13U       1.18
37           U7G G9U U11C C12A C13G       1.28
38       U7C U8A G9C U10A C12G C13A       1.11
39           U7C G9U U11G C12G C13A       1.18
40      U8A G9C U10C U11C C12A C13A       1.04
41            U7A U8A G9A U10C U11G       1.14
42            U7G U8C G9A U11C C13U       1.21
43       U7C U8C G9C U11G C12A C13U       1.09
44       U7G U8G G9C U11A C12U C13G       1.15
45       U7A U8C G9C U10C C12A C13U      0.999
46       U7C U8C G9U U10G C12A C13U        1.1
47      U7C G9A U10A U11G C12U C13G       1.13
48       U7G U8A G9A U10G C12A C13G       1.06
49                U8G G9C U10A U11G       1.18
50  U7C U8G G9A U10A U11C C12G C13A       1.32
51                U8G G9C U11G C13U       1.06
52            U7A U8A G9C U11G C12U       1.71
53            U7C U8G G9U U11G C12A       1.27
54           U8C G9A U10C U11G C12G       1.27
55       U7A U8C G9U U11A C12U C13G       1.22
56            U7G U8A G9A U10C C12A        1.1
57  U7C U8A G9A U10C U11G C12G C13A       1.24
58            U7A U8C G9C U10C C12A       1.03
59      U7A U8A U10A U11A C12G C13A       1.05
60          U8A U10A U11G C12U C13G       1.45
61  U7A U8G G9C U10G U11C C12A C13U       1.29
62      U8C G9U U10C U11G C12G C13G       1.15
63      U7G G9U U10A U11G C12U C13G       1.12
64           U7G G9U U10C C12U C13U       1.34
65           U7C G9A U10A U11G C13G       1.02
66           U7G U8A U10A U11G C13U       1.38
67                    G9C U11C C12U       1.14
68  U7G U8G G9A U10C U11A C12G C13G       1.18
69           U7G G9U U10A U11C C13G       1.12
70          U8G U10A U11G C12A C13A       1.11
71      U7G U8C U10C U11C C12G C13G       1.06
72           U7A U8A U11C C12A C13A       1.02
73           U7C U8A U10C C12G C13G       1.16
74           U8G G9U U10A U11C C13U       1.01
75      U7A G9U U10G U11G C12G C13A       1.23
76               U8G U10C U11G C13A       1.07
77          U8A U10G U11A C12A C13U       1.11
78      U7C U8C U10G U11G C12G C13A       1.13
79      U7C G9U U10C U11A C12A C13U       1.15
80            U7G U8C G9C C12U C13U       1.21
81            U7C U8C G9A U11G C13U       1.27
82  U7C U8A G9A U10C U11G C12U C13U       1.26
83            U7G U8A G9U C12A C13A        1.1
